Sodium-dependent serotonin transporter (Mus musculus, UniProt Q60857) measurements of pIC50, listed per entry.
Sequence (Q60857 whole entry): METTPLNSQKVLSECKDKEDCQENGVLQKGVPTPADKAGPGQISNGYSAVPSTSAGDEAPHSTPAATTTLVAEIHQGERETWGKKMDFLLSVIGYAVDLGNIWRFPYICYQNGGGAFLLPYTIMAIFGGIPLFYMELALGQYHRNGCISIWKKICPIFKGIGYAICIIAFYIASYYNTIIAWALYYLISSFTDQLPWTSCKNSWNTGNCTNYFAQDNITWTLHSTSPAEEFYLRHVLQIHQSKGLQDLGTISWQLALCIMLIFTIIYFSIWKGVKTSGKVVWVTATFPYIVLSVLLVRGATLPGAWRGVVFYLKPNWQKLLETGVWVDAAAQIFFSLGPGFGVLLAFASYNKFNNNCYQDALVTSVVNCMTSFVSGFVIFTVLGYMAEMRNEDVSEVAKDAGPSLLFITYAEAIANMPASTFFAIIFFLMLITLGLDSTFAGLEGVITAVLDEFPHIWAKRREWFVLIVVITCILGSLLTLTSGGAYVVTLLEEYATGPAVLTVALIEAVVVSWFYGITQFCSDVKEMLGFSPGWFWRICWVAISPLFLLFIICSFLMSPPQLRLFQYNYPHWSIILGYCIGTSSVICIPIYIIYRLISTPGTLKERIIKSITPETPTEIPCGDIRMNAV
Notebook: values listed as pIC50 are -log10 of the concentration (mol/L).

Enquiry: Note down pIC50 recorded for `Cl.NC1CC(c2ccccc2)(c2ccccc2)C1`
Return: 5.55

Enquiry: Note down pIC50 recorded for `CN(C)C1CC(c2ccccc2)(c2ccccc2)C1.Cl`
Return: 6.05

Enquiry: Note down pIC50 recorded for `CNC1CC(c2ccccc2)(c2ccccc2)C1.Cl`
Return: 5.52

====

Organism: Mus musculus
Experiment: animal or person
Details: NMRI, Hypothalamus, ip
Quantity kind: ED50 (µmol/kg)
Field format: number, assumed µmol/kg, no unit text.

Enquiry: Note down ED50 recorded for `Cl.NC1CC(c2ccccc2)(c2ccccc2)C1`
Return: 103

Enquiry: Note down ED50 recorded for `CN(C)C1CC(c2ccccc2)(c2ccccc2)C1.Cl`
Return: 32

Enquiry: Note down ED50 recorded for `CN(C)CCCN1c2ccccc2CCc2ccc(Cl)cc21`
Return: 109

Enquiry: Note down ED50 recorded for `CNC1CC(c2ccccc2)(c2ccccc2)C1.Cl`
Return: 31

====

Assay: in vivo
Details: NMRI albino, mouse, iv
Description: Acute toxicity in iv dosed NMRI albino mouse assessed as lethality up to 24 hrs
For each entry below, report its LD50 at 24 h value.
Mention the unit after the number when you answer.

Enquiry: Note down LD50 at 24 h recorded for `CN(C)CCCN1c2ccccc2CCc2ccc(Cl)cc21`
Return: 142 µmol/kg

Enquiry: Note down LD50 at 24 h recorded for `Cl.NC1CC(c2ccccc2)(c2ccccc2)C1`
Return: 192 µmol/kg

Enquiry: Note down LD50 at 24 h recorded for `CN(C)C1CC(c2ccccc2)(c2ccccc2)C1.Cl`
Return: 104 µmol/kg

Enquiry: Note down LD50 at 24 h recorded for `CNC1CC(c2ccccc2)(c2ccccc2)C1.Cl`
Return: 128 µmol/kg

====

Organism: Mus musculus
Quantity kind: PD200
Mention the unit after the number when you answer.

Enquiry: Note down PD200 recorded for `CNC1CC(c2ccccc2)(c2ccccc2)C1.Cl`
Return: 9 µmol/kg

Enquiry: Note down PD200 recorded for `CN(C)CCCN1c2ccccc2CCc2ccc(Cl)cc21`
Return: 6 µmol/kg

Enquiry: Note down PD200 recorded for `Cl.NC1CC(c2ccccc2)(c2ccccc2)C1`
Return: 15 µmol/kg

Enquiry: Note down PD200 recorded for `CN(C)C1CC(c2ccccc2)(c2ccccc2)C1.Cl`
Return: 24 µmol/kg

====

Sodium-dependent noradrenaline transporter (Mus musculus) measurements of IC50, listed per entry.
Sequence (O55192 whole entry): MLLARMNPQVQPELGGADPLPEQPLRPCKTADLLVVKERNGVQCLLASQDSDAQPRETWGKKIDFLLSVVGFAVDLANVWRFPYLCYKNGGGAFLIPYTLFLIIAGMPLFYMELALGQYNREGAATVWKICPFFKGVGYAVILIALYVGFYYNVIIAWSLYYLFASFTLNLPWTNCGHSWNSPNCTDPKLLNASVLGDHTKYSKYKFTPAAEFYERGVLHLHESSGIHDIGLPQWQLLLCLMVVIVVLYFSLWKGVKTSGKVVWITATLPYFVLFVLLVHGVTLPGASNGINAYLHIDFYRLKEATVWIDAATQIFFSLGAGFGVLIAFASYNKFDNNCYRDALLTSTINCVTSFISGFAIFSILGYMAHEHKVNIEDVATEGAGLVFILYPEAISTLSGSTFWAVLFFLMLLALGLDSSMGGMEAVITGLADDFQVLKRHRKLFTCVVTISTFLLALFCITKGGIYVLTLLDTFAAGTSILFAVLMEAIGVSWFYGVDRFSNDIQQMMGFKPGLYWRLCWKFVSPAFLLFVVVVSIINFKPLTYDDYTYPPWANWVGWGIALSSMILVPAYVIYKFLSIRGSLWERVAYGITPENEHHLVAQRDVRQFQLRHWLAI
Field format: number, assumed nM, no unit text.

Enquiry: Note down IC50 recorded for `CN(C)C1CC(c2ccccc2)(c2ccccc2)C1.Cl`
Return: 800

Enquiry: Note down IC50 recorded for `Cl.NC1CC(c2ccccc2)(c2ccccc2)C1`
Return: 2200

Enquiry: Note down IC50 recorded for `CNC1CC(c2ccccc2)(c2ccccc2)C1.Cl`
Return: 800

====

Organism: Mus musculus
Test: animal or person
Conditions: NMRI, Hypothalamus, ip
Quantity kind: ED50

Enquiry: Note down ED50 recorded for `Cl.NC1CC(c2ccccc2)(c2ccccc2)C1`
Return: > 154 µmol/kg

Enquiry: Note down ED50 recorded for `CN(C)C1CC(c2ccccc2)(c2ccccc2)C1.Cl`
Return: 104 µmol/kg

Enquiry: Note down ED50 recorded for `CNC1CC(c2ccccc2)(c2ccccc2)C1.Cl`
Return: 91 µmol/kg

Enquiry: Note down ED50 recorded for `CN(C)CCCN1c2ccccc2CCc2ccc(Cl)cc21`
Return: > 113 µmol/kg
